Provide the recorded RLU for the entries that follow.
Target: mouse Tas2r105 (Mus musculus)
Construct: expressed in transfected cells; host or cells: HEK293T-Gα16gust44
Sequence (Q9JKT4 whole entry): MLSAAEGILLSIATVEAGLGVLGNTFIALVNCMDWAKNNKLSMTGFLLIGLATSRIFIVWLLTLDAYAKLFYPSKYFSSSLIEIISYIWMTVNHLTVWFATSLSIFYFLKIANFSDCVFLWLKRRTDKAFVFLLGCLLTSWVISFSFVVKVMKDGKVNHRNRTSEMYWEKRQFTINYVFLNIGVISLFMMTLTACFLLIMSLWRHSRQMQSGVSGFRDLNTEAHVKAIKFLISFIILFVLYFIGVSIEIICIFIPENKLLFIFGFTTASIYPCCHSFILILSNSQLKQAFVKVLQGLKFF
Assay: Calcium imaging assay (FLIPR), HEK293T-Gα16gust44 cells transfected with mouse Tas2r105
Type: cell-based
Settings: Time 118.781 s
Dear colleague, please return just the value in RLU, with no unit written.

The compound identified as C[C@H](CCC(=O)O)[C@H]1CC[C@H]2[C@@H]3CC[C@@H]4C[C@H](O)CC[C@]4(C)[C@H]3CC[C@]12C registered its RLU at 257.566

The compound identified as C[C@H](CCC(=O)O)[C@H]1CC[C@H]2[C@@H]3[C@H](O)C[C@@H]4C[C@H](O)CC[C@]4(C)[C@H]3C[C@H](O)[C@]12C registered its RLU at 555.391

The compound identified as C[C@H](CCC(=O)NCC(=O)O)[C@H]1CC[C@H]2[C@@H]3[C@H](O)C[C@@H]4C[C@H](O)CC[C@]4(C)[C@H]3C[C@H](O)[C@]12C registered its RLU at 515.53

The compound identified as C[C@H](CCC(=O)O)[C@H]1CC[C@H]2[C@@H]3CC[C@@H]4C[C@H](O)CC[C@]4(C)[C@H]3C[C@H](O)[C@]12C registered its RLU at 160.265

* * *

Provide the recorded RLU, fluorescence trace for the entries that follow.
Molecular target: human TAS2R4 (Homo sapiens, UniProt Q9NYW5)
Construct: expressed in transfected cells; host or cells: HEK293T-Gα16gust44
Sequence (Q9NYW5 whole entry): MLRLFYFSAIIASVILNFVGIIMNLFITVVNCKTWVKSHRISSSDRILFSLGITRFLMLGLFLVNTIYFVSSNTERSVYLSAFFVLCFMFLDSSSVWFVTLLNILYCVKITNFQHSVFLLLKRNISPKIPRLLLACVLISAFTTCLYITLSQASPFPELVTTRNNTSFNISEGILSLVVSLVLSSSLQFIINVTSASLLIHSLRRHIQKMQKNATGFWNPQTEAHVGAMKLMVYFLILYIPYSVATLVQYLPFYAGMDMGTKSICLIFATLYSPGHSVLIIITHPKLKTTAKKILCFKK
Assay: Calcium imaging assay (FLIPR), HEK293T-Gα16gust44 cells transfected with human TAS2R4; also: test concentration or dose not given here
Type: cell-based
Details: Time (s) 124.781 (TCA, TLCA: 124.782)
Dear colleague, please return just the value in RLU, with no unit written.

The compound identified as C[C@H](CCC(=O)O)[C@H]1CC[C@H]2[C@@H]3CC[C@@H]4C[C@H](O)CC[C@]4(C)[C@H]3C[C@H](O)[C@]12C registered its RLU, fluorescence trace at 333.589

The compound identified as C[C@H](CCC(=O)NCC(=O)O)[C@H]1CC[C@H]2[C@@H]3[C@H](O)C[C@@H]4C[C@H](O)CC[C@]4(C)[C@H]3C[C@H](O)[C@]12C registered its RLU, fluorescence trace at 509.201

The compound identified as C[C@H](CCC(=O)NCCS(=O)(=O)O)[C@H]1CC[C@H]2[C@@H]3[C@H](O)C[C@@H]4C[C@H](O)CC[C@]4(C)[C@H]3C[C@H](O)[C@]12C registered its RLU, fluorescence trace at 578.218

The compound identified as C[C@H](CCC(=O)O)[C@H]1CC[C@H]2[C@@H]3[C@H](O)C[C@@H]4C[C@H](O)CC[C@]4(C)[C@H]3C[C@H](O)[C@]12C registered its RLU, fluorescence trace at 470.085

The compound identified as C[C@H](CCC(=O)O)[C@H]1CC[C@H]2[C@@H]3[C@@H](O)C[C@@H]4C[C@H](O)CC[C@]4(C)[C@H]3CC[C@]12C registered its RLU, fluorescence trace at 218.638

The compound identified as C[C@H](CCC(=O)NCCS(=O)(=O)O)[C@H]1CC[C@H]2[C@@H]3CC[C@@H]4C[C@H](O)CC[C@]4(C)[C@H]3CC[C@]12C registered its RLU, fluorescence trace at 273.898

* * *

Molecular target: human TAS2R14 (Homo sapiens)
Construct: expressed in transfected cells; host or cells: HEK293T-Gα16gust44
Sequence (Q9NYV8 whole entry): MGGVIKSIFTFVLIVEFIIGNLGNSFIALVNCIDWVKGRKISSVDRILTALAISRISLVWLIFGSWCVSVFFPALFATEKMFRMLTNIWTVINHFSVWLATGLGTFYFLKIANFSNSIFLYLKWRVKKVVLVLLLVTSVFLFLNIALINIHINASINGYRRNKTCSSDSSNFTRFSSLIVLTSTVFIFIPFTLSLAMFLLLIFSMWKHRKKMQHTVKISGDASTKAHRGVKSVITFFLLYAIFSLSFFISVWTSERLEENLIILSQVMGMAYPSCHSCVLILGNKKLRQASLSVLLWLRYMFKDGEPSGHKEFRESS
Assay: Calcium imaging assay (FLIPR), HEK293T-Gα16gust44 cells transfected with human TAS2R14
Assay type: cell-based
Conditions: TAS2R14 trace; Time (s) 100.797 (Chenodeoxycholic Acid 100.781)
// returns not fulfilled unless RLU is strictly below 600 RLU, in which case fulfilled

In: Item C[C@H](CCC(=O)O)[C@H]1CC[C@H]2[C@@H]3[C@H](O)C[C@@H]4C[C@H](O)CC[C@]4(C)[C@H]3C[C@H](O)[C@]12C [Cholic Acid, cholic acid] : RLU beneath 600 RLU, strictly?
Out: not fulfilled

In: Item C[C@H](CCC(=O)NCCS(=O)(=O)O)[C@H]1CC[C@H]2[C@@H]3CC[C@@H]4C[C@H](O)CC[C@]4(C)[C@H]3CC[C@]12C [Taurolithocholic Acid, taurolithocholic acid] : RLU beneath 600 RLU, strictly?
Out: fulfilled

In: Item C[C@H](CCC(=O)NCC(=O)O)[C@H]1CC[C@H]2[C@@H]3[C@H](O)C[C@@H]4C[C@H](O)CC[C@]4(C)[C@H]3C[C@H](O)[C@]12C [Glycocholic Acid, glycocholic acid] : RLU beneath 600 RLU, strictly?
Out: not fulfilled

In: Item C[C@H](CCC(=O)NCCS(=O)(=O)O)[C@H]1CC[C@H]2[C@@H]3[C@H](O)C[C@@H]4C[C@H](O)CC[C@]4(C)[C@H]3C[C@H](O)[C@]12C [Taurocholic Acid, taurocholic acid] : RLU beneath 600 RLU, strictly?
Out: not fulfilled

* * *

Biological target: human TAS2R1 (Homo sapiens)
Construct: expressed in transfected cells; host or cells: HEK293T-Gα16gust44
Assay: Calcium imaging assay (FLIPR), HEK293T-Gα16gust44 cells transfected with human TAS2R1
Assay type: cell-based
Conditions: Time 18.796 s
metric: RLU (RLU)
Dear colleague, please return just the value in RLU, with no unit written.

The compound identified as C[C@H](CCC(=O)O)[C@H]1CC[C@H]2[C@@H]3[C@H](O)C[C@@H]4C[C@H](O)CC[C@]4(C)[C@H]3CC[C@]12C registered its RLU at 35.4441

The compound identified as C[C@H](CCC(=O)O)[C@H]1CC[C@H]2[C@@H]3[C@@H](O)C[C@@H]4C[C@H](O)CC[C@]4(C)[C@H]3CC[C@]12C registered its RLU at -5.241

The compound identified as C[C@H](CCC(=O)O)[C@H]1CC[C@H]2[C@@H]3[C@H](O)C[C@@H]4C[C@H](O)CC[C@]4(C)[C@H]3C[C@H](O)[C@]12C registered its RLU at -13.8993

The compound identified as C[C@H](CCC(=O)O)[C@H]1CC[C@H]2[C@@H]3CC[C@@H]4C[C@H](O)CC[C@]4(C)[C@H]3CC[C@]12C registered its RLU at 25.7864

* * *

Provide the recorded RLU for the entries that follow.
Target: human TAS2R1 (Homo sapiens, UniProt Q9NYW7)
Construct: expressed in transfected cells; host or cells: HEK293T-Gα16gust44
Sequence (Q9NYW7 whole entry): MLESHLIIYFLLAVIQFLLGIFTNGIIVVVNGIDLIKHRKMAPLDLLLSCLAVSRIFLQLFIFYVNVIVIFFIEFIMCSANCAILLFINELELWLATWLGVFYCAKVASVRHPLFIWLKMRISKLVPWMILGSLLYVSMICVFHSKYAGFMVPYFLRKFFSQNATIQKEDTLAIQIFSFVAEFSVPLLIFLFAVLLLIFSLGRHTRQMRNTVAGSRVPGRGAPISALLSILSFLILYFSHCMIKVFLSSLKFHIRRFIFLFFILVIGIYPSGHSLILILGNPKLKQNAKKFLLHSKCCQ
Assay: Calcium imaging assay (FLIPR), HEK293T-Gα16gust44 cells transfected with human TAS2R1
Assay type: cell-based
Settings: Time 48.796 s
Method: This set of bile acids was chosen because of their commercial availability in high purities, their diversity within the class of bile acids and their previous detection and quantitation in human blood. Stock solutions were prepared in DMSO. […] Measured data were negative control corrected by subtracting the signal of the mock-transfected cells and exported to Microsoft Excel using the FLIPR software ScreenWorks 4.2. […]
Dear colleague, please return just the value in RLU, with no unit written.

The compound identified as C[C@H](CCC(=O)O)[C@H]1CC[C@H]2[C@@H]3[C@H](O)C[C@@H]4C[C@H](O)CC[C@]4(C)[C@H]3CC[C@]12C registered its RLU at 919.121

The compound identified as C[C@H](CCC(=O)O)[C@H]1CC[C@H]2[C@@H]3[C@H](O)C[C@@H]4C[C@H](O)CC[C@]4(C)[C@H]3C[C@H](O)[C@]12C registered its RLU at 747.058

The compound identified as C[C@H](CCC(=O)O)[C@H]1CC[C@H]2[C@@H]3CC[C@@H]4C[C@H](O)CC[C@]4(C)[C@H]3CC[C@]12C registered its RLU at 701.461

The compound identified as C[C@H](CCC(=O)O)[C@H]1CC[C@H]2[C@@H]3[C@@H](O)C[C@@H]4C[C@H](O)CC[C@]4(C)[C@H]3CC[C@]12C registered its RLU at 712.245

* * *

Molecular target: mouse Tas2r105 (Mus musculus)
Construct: expressed in transfected cells; host or cells: HEK293T-Gα16gust44
Assay: Calcium imaging assay (FLIPR), HEK293T-Gα16gust44 cells transfected with mouse Tas2r105
Type: cell-based
Settings: Time 74.781 s
metric: RLU (RLU)
Dear colleague, please return just the value in RLU, with no unit written.

The compound identified as C[C@H](CCC(=O)O)[C@H]1CC[C@H]2[C@@H]3CC[C@@H]4C[C@H](O)CC[C@]4(C)[C@H]3C[C@H](O)[C@]12C registered its RLU at 54.3186

The compound identified as C[C@H](CCC(=O)O)[C@H]1CC[C@H]2[C@@H]3[C@H](O)C[C@@H]4C[C@H](O)CC[C@]4(C)[C@H]3C[C@H](O)[C@]12C registered its RLU at 470.44

The compound identified as C[C@H](CCC(=O)O)[C@H]1CC[C@H]2[C@@H]3CC[C@@H]4C[C@H](O)CC[C@]4(C)[C@H]3CC[C@]12C registered its RLU at 144.653

The compound identified as C[C@H](CCC(=O)NCC(=O)O)[C@H]1CC[C@H]2[C@@H]3[C@H](O)C[C@@H]4C[C@H](O)CC[C@]4(C)[C@H]3C[C@H](O)[C@]12C registered its RLU at 419.192

These data points were gathered from paper PMC10247784.
